Measurement target: Carbonic anhydrase 1 (Drosophila melanogaster, UniProt Q9V396)
Sequence (Q9V396 whole entry): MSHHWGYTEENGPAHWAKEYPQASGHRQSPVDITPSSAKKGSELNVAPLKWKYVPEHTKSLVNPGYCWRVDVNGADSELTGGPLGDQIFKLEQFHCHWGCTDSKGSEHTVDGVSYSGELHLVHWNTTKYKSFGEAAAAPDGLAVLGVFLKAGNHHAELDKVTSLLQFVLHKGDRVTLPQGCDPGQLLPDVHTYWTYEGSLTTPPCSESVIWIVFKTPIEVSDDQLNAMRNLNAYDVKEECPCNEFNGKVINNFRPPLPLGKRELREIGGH
Protocol text: Inhibition of Drosophila melanogaster recombinant carbonic anhydrase-1 expressed in Escherichia coli BL21 (DE3) preincubated for 15 mins by CO2 hydration stopped-flow assay
pKi: −log10 of the molar value. Counter-ions that a name gives are not always drawn.
Would you mind labelling by pKi? At or over 7 is Yes, under is No.

The following compounds have reported results that may help.
S=C(S)NCCN1CCOCC1: Yes
S=C(S)NCc1ccccc1 [SODIUM BENZYLCARBAMODITHIOATE]: Yes
S=C(S)NN1CCOCC1 [POTASSIUM MORPHOLINOCARBAMODITHIOATE]: Yes
CCC(C)NC(=S)S (racemic): No
CN(Cc1ccccc1)C(=S)S [SODIUM BENZYL(METHYL)CARBAMODITHIOATE]: Yes

Query: Exam item: decide whether the reported pKi for CCCN(CCC)C(=S)S [DIPROPYLCARBAMODITHIOATE SODIUM SALT] is at least 7.
Result: Yes

====

Measurement target: Carbonic anhydrase 2, isoform A (Drosophila melanogaster)
Sequence (Q9VTU8 whole entry, canonical isoform): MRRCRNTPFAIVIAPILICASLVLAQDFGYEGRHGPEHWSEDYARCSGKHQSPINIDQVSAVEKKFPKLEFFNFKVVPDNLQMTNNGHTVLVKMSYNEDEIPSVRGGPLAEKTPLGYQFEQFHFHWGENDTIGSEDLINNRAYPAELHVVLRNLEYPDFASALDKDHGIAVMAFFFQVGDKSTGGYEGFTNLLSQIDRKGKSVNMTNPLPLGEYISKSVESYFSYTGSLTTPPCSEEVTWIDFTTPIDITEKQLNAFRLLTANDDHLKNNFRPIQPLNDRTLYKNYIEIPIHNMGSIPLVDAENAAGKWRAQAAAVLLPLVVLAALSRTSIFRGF
Protocol text: Inhibition of Drosophila melanogaster recombinant carbonic anhydrase-2 expressed in Escherichia coli BL21 (DE3) preincubated for 15 mins by CO2 hydration stopped-flow assay
Counter-ions that a name gives are not always drawn.
// assign 1 if Ki falls strictly below 30 nM, else -1 (ties count as -1)

The following compounds have reported results that may help.
CCCCCCN(CCCCCC)C(=S)S [DIHEXYLCARBAMODITHIOATE SODIUM SALT]: 1
CN(C)C(=S)S [SODIUM DIMETHYLCARBAMODITHIOATE]: -1
CCN(CC)C(=S)S [DITIOCARB SODIUM]: -1
S=C(S)Nc1ccccc1 [TRIETHYLAMMONIUM PHENYLCARBAMODITHIOATE]: -1
S=C(S)N1CCOCC1 [MORPHOLINECARBAMODITHIOATE SODIUM SALT]: 1
CCCN(CCC)C(=S)S [DIPROPYLCARBAMODITHIOATE SODIUM SALT]: 1

Would you kindly look at the next entry?
Query: Regarding CCC(C)NC(=S)S (racemic) , kindly confirm whether its Ki is beneath 30 nM.
Result: 1

====

Measurement target: Carbonic anhydrase 1 (Drosophila melanogaster, UniProt Q9V396)
Protocol text: Inhibition of Drosophila melanogaster recombinant carbonic anhydrase-1 expressed in Escherichia coli BL21 (DE3) preincubated for 15 mins by CO2 hydration stopped-flow assay
pKi: −log10 of the molar value. Counter-ions that a name gives are not always drawn.
Would you mind labelling by pKi? At or over 8 is 1 (yes), under is 0 (no).

Query: Exam item: decide whether the reported pKi for CCCCCCN(CCCCCC)C(=S)S [DIHEXYLCARBAMODITHIOATE SODIUM SALT] is at least 8.
Result: 1 (yes)

Query: Exam item: decide whether the reported pKi for CC(C)CN(CC(C)C)C(=S)S [DIISOBUTYLCARBODITHIOIC ACID SODIUM SALT] is at least 8.
Result: 0 (no)

Query: Exam item: decide whether the reported pKi for CN(C)C(=S)S [SODIUM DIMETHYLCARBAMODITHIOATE] is at least 8.
Result: 0 (no)

Query: Exam item: decide whether the reported pKi for CCN(CC)C(=S)S [DITIOCARB SODIUM] is at least 8.
Result: 0 (no)

Query: Exam item: decide whether the reported pKi for S=C(S)N1CCN(C(=S)S)CC1 [PIPERAZINECARBAMODITHIOATE DISODIUM SALT] is at least 8.
Result: 1 (yes)

Query: Exam item: decide whether the reported pKi for `S=C(S)NCCN1CCCCC1` is at least 8.
Result: 0 (no)

Query: Exam item: decide whether the reported pKi for S=C(S)Nc1ccccc1 [TRIETHYLAMMONIUM PHENYLCARBAMODITHIOATE] is at least 8.
Result: 0 (no)

Query: Exam item: decide whether the reported pKi for `O=C(O)[C@@H]1CCCN1C(=S)S` is at least 8.
Result: 1 (yes)

Query: Exam item: decide whether the reported pKi for `O=C(O)CNC(=S)S` is at least 8.
Result: 0 (no)

Query: Exam item: decide whether the reported pKi for `S=C(S)NCc1ccncc1` is at least 8.
Result: 0 (no)
